# credit: patent US8309558B2

# Test system: HCV replicon cells
# EXPERIMENT NOTES: HCV replicon FRET / luciferase assay (96-well plates)
# Type: cell-based
# CONDITION SUMMARY: Hepatitis C virus, Table 1b; HCV replicon; read-out: EC50
pEC50: −log10 of the molar value.

{"columns": ["COMPOUND", "TEST SYSTEM", "pEC50"],
 "data": [
  ["CCC(O)COc1ccc(C(=O)NCC(C)C)cc1-c1ccc2oc(-c3ccc(F)cc3)c(C(=O)NC)c2c1 (centres unmarked)", "HCV replicon cells", "6.00 to 6.60"],
  ["CCCOc1cc(C(=O)NCC(C)C)cc(-c2ccc3oc(-c4ccc(F)cc4)c(C(=O)NC)c3c2)c1", "HCV replicon cells", "5.00 to 6.00"],
  ["CCCc1nnc(C2(NC(=O)c3ccc(C)c(-c4ccc5oc(-c6ccc(F)cc6)c(C(=O)NC)c5c4)c3)CC2)[nH]1", "HCV replicon cells", "> 6.60"],
  ["CNC(=O)c1c(-c2ccc(F)cc2)oc2ccc(-c3cc(C(=O)NCC(C)C)ccc3OCCOC)cc12", "HCV replicon cells", "> 6.60"],
  ["CNC(=O)c1c(-c2ccc(F)cc2)oc2ccc(-c3cc(C(=O)NC4(c5ccccn5)CC4)c(F)cc3O)cc12", "HCV replicon cells", "6.00 to 6.60"],
  ["CNC(=O)c1c(-c2ccc(F)cc2)oc2ccc(-c3cc(C(=O)NC4(c5ccccn5)CC4)ccc3OCCO)cc12", "HCV replicon cells", "> 6.60"],
  ["CNC(=O)c1c(-c2ccc(F)cc2)oc2ccc(-c3cc(C(=O)NC4(c5nnc(-c6ccncc6)[nH]5)CC4)ccc3C)cc12", "HCV replicon cells", "> 6.60"],
  ["CNC(=O)c1c(-c2ccc(F)cc2)oc2cc(N(CCO)S(C)(=O)=O)c(-c3cccc(C(=O)NC(C)(C)c4ccnc(C)c4)c3)cc12", "HCV replicon cells", "> 6.60"]
]}

---

Catalogue of EC50 values
# Tested on: HCV replicon cells
# EXPERIMENT NOTES: HCV replicon FRET / luciferase assay (96-well plates)
# Assay type: cell-based
# CONDITION SUMMARY: Hepatitis C virus, Table 1a; HCV replicon; read-out: EC50

{"columns": ["MOLECULE", "EC50"],
 "data": [
  ["C#CC(C)(C)NC(=O)c1cccc(-c2ccc3oc(-c4ccc(F)cc4)c(C(=O)NC)c3c2)c1", "< 250 nM"],
  ["CNC(=O)c1c(-c2ccc(F)cc2)oc2ccc(-c3ccc(F)cc3CN)cc12", "> 10000 nM"],
  ["CNC(=O)c1c(-c2ccc(F)cc2)oc2ccc(-c3cccc(C(=O)N4CCC(c5ccc(F)cc5)C4)c3)cc12 (stereo not shown)", "250 to 1000 nM"],
  ["CNC(=O)c1c(-c2ccc(F)cc2)oc2cc([N+](=O)[O-])c(-c3cccc(C(=O)NC(C)(C)c4ccccc4)c3)cc12", "< 250 nM"]
]}

---

Catalogue of EC50 values
# Tested on: HCV replicon cells
# EXPERIMENT NOTES: HCV replicon FRET / luciferase assay (96-well plates)
# Format: cell-based
# CONDITION SUMMARY: Hepatitis C virus, Table 1b; HCV replicon; read-out: EC50

{"columns": ["MOLECULE", "EC50"],
 "data": [
  ["CNC(=O)c1c(-c2ccc(F)cc2)oc2ccc(-c3cc(C(=O)NC(C)(C)c4ccccc4)ccc3OC)cc12 [drawing 355]", "< 250 nM"],
  ["CNC(=O)c1c(-c2ccc(F)cc2)oc2ccc(-c3cc(C(=O)NCC(C)C)ccc3OCc3ccc(C(F)(F)F)cn3)cc12", "> 10000 nM"],
  ["CNC(=O)c1c(-c2ccc(F)cc2)oc2ccc(-c3cc(C(=O)NC4(c5ccccn5)CC4)ccc3OCC(N)=O)cc12", "< 250 nM"],
  ["CNC(=O)c1c(-c2ccc(F)cc2)oc2ccc(-c3cc(C(=O)NC4(c5ncccn5)CC4)c(OC)cc3C)c(F)c12", "< 250 nM"],
  ["CNC(=O)c1c(-c2ccc(F)cc2)oc2ccc(-c3ccc(CCC(C)C)c(C(=O)NCC(C)C)c3)cc12", "> 10000 nM"],
  ["CNC(=O)c1c(-c2ccc(F)cc2)oc2ccc(-c3c(C)ccc(C(=O)NC4(c5ccccn5)CC4)c3F)cc12", "< 250 nM"],
  ["CCOc1cccc(-c2ccc(-c3ccc4oc(-c5ccc(F)cc5)c(C(=O)NC)c4c3)cc2C(=O)NCC(C)C)c1", "< 250 nM"]
]}
